Organism: Rattus norvegicus
procedure-details: DrugMatrix - Regimen: Daily Repeat
Assay type: toxicity, organism-based, Sprague-Dawley
Parameters: regimen Daily Repeat, gender Male, age 6-8 weeks
experimental-setup: in vivo, po, 0 mg/kg, 120 h, tissue Plasma, route oral GAVAGE, dose level Control, time 5 day, vehicle .5 % CMC
measurement-type: ALKALINE PHOSPHATASE (u/L)
Write the answer as a number in u/L, unit excluded.

# input Output ALKALINE PHOSPHATASE of CO[C@H]1/C=C/O[C@@]2(C)Oc3c(C)c(O)c4c(c3C2=O)C2=NC3(CCN(CC(C)C)CC3)NC2=C(NC(=O)/C(C)=C\C=C\[C@H](C)[C@H](O)[C@@H](C)[C@@H](O)[C@@H](C)[C@H](OC(C)=O)[C@@H]1C)C4=O
# output 373.17

# input Please report ALKALINE PHOSPHATASE for the following molecule: C[C@](O)(CS(=O)(=O)c1ccc(F)cc1)C(=O)Nc1ccc(C#N)c(C(F)(F)F)c1 [(R)-BICALUTAMIDE]
# output 352.33

# input Check the records and state ALKALINE PHOSPHATASE for CNC(=C[N+](=O)[O-])NCCSCc1ccc(CN(C)C)o1
# output 373.17

# input Note ALKALINE PHOSPHATASE for the molecule shown: OC(CCN1CCCCC1)(c1ccccc1)C1CCCCC1 (stereo not drawn)
# output 405.67

# input Using the record for CN1C(=O)COc2c(C(=O)NC3CN4CCC3CC4)cc(Cl)cc21 (stereo not drawn) , state its measured ALKALINE PHOSPHATASE.
# output 356.67

# input Using the record for CC(=O)CC(c1ccccc1)c1c(O)c2ccccc2oc1=O (stereo not drawn) , state its measured ALKALINE PHOSPHATASE.
# output 365.67

# input Find the measured ALKALINE PHOSPHATASE of CN1CCC(=C2c3ccccc3C=Cc3ccccc32)CC1 and report it.
# output 342.5

# input State its ALKALINE PHOSPHATASE: Cc1onc(-c2ccccc2)c1-c1ccc(S(N)(=O)=O)cc1
# output 391

---

Species: Rattus norvegicus
procedure-details: DrugMatrix - Regimen: Daily Repeat
Type: toxicity, organism-based, Sprague-Dawley
Parameters: regimen Daily Repeat, gender Male, age 6-8 weeks
experimental-setup: in vivo, po, 0 mg/kg, 72 h, tissue Plasma, route oral GAVAGE, dose level Control, time 3 day, […]
Would you kindly list ALKALINE PHOSPHATASE for each of these molecules?
Give the quantity in u/L, number only.

# input Look up and report measured ALKALINE PHOSPHATASE for this entry: CC/C(=C(/CC)c1ccc(O)cc1)c1ccc(O)cc1
# output 374.17

# input Indicate the recorded ALKALINE PHOSPHATASE value for this molecule: CC(C)Cc1ccc(C(C)C(=O)O)cc1 (stereo not drawn)
# output 607.67

# input Supply measured ALKALINE PHOSPHATASE of S=C=Nc1cccc2ccccc12 [1-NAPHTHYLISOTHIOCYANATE] in your reply.
# output 377.5

# input Name the recorded ALKALINE PHOSPHATASE of the molecule listed here: COCCOC(=O)C1=C(C)NC(C)=C(C(=O)OC(C)C)C1c1cccc([N+](=O)[O-])c1 (stereo not drawn)
# output 464.83

# input Indicate its recorded ALKALINE PHOSPHATASE; the molecule in question is Clc1ccc(Cl)cc1
# output 530

# input Provide one value: measured ALKALINE PHOSPHATASE of C[C@H]1O[C@@H](O[C@H]2[C@@H](O)C[C@H](O[C@H]3[C@@H](O)C[C@H](O[C@H]4CC[C@@]5(C)[C@H](CC[C@@H]6[C@@H]5CC[C@]5(C)[C@@H](C7=CC(=O)OC7)CC[C@]65O)C4)O[C@@H]3C)O[C@@H]2C)C[C@H](O)[C@@H]1O
# output 375

# input Answer with the recorded ALKALINE PHOSPHATASE for the molecule listed here: CC(=O)Nc1cccc(O)c1
# output 332.5

# input Assign ALKALINE PHOSPHATASE to the following record: CCOC(=O)C(C)(C)Oc1ccc(Cl)cc1 [CLOFIBRATE]
# output 329.83

---

Species on record: Rattus norvegicus
procedure-details: DrugMatrix - Regimen: Daily Repeat
Type: toxicity, organism-based, Sprague-Dawley
Set-up: regimen Daily Repeat, gender Male, age 6-8 weeks
experimental-setup: in vivo, po, 10 mg/kg, 72 h, tissue Plasma, route oral GAVAGE, dose level Low, time 3 day, […]
measurement-type: PHOSPHORUS (mg/dL)
Give a bare numeral; the unit mg/dL is implied.

# input State its PHOSPHORUS for this molecule: CC(C)CC(N(C)C)C1(c2ccc(Cl)cc2)CCC1 (centres undefined)
# output 11.93

# input Return the recorded PHOSPHORUS value; entry: COCCOC(=O)C1=C(C)NC(C)=C(C(=O)OC(C)C)C1c1cccc([N+](=O)[O-])c1 (centres undefined)
# output 11.03

# input Give PHOSPHORUS for the following molecule: COc1ccc2cc([C@H](C)C(=O)O)ccc2c1
# output 12.03

# input Supply reported PHOSPHORUS belonging to this molecule: CCOC(=O)C1=C(C)NC(C)=C(C(=O)OC)C1c1cccc([N+](=O)[O-])c1 (centres undefined)
# output 10.8

---

Organism: Rattus norvegicus
procedure-details: DrugMatrix - Regimen: Daily Repeat
Format: toxicity, organism-based, Sprague-Dawley
Design: regimen Daily Repeat, gender Male, age 6-8 weeks
experimental-setup: in vivo, po, 0 mg/kg, 120 h, tissue Blood, route oral GAVAGE, dose level Control, time 5 day, […]
Binary call on ABSOLUTE SEGMENTED NEUTROPHIL: 1 from 1000 CELLS/uL upward, 0 beneath that.

# input # check: ABSOLUTE SEGMENTED NEUTROPHIL of CC(C)(Oc1ccc(C2CCCc3ccccc32)cc1)C(=O)O (stereo not given) [NAFENOPIN] is greater than or equal to 1000 CELLS/uL
# output 1

# input For this compound, is measured ABSOLUTE SEGMENTED NEUTROPHIL 1000 CELLS/uL or higher? CC(C)Cc1ccc(C(C)C(=O)O)cc1 (stereo not given) [IBUPROFEN]
# output 0

# input Decide: ABSOLUTE SEGMENTED NEUTROPHIL of O=C(O)Cc1ccccc1Nc1c(Cl)cccc1Cl [DICLOFENAC] >= 1000 CELLS/uL?
# output 0

# input Kindly determine if ABSOLUTE SEGMENTED NEUTROPHIL recorded for COc1ccc2[nH]c([S+]([O-])Cc3ncc(C)c(OC)c3C)nc2c1 (stereo not given) [OMEPRAZOLE] is above or exactly 1000 CELLS/uL.
# output 0

# input Decide: ABSOLUTE SEGMENTED NEUTROPHIL of O=NN(CCCl)C(=O)NCCCl [CARMUSTINE] >= 1000 CELLS/uL?
# output 1

# input Does the reported ABSOLUTE SEGMENTED NEUTROPHIL for Cc1cccc(Nc2ccncc2S(=O)(=O)NC(=O)NC(C)C)c1 [TORSEMIDE] fall at or above the 1000 CELLS/uL mark?
# output 0

# input I'd appreciate it if you could say whether CC/C(=C(/CC)c1ccc(O)cc1)c1ccc(O)cc1 [DIETHYLSTILBESTROL] has ABSOLUTE SEGMENTED NEUTROPHIL at least equal to 1000 CELLS/uL.
# output 0

# input Check this compound for ABSOLUTE SEGMENTED NEUTROPHIL at or above 1000 CELLS/uL: CCCCCCCCc1ccc(O)cc1 [4-OCTYLPHENOL]
# output 1

---

Kindly supply the reported LIPASE values for the records listed here.
Organism: Rattus norvegicus
procedure-details: DrugMatrix - Regimen: Daily Repeat
Type: toxicity, organism-based, Sprague-Dawley
Set-up: regimen Daily Repeat, gender Male, age 6-8 weeks
experimental-setup: in vivo, po, 0 mg/kg, 120 h, tissue Plasma, route oral GAVAGE, dose level Control, time 5 day, […]
Give the value, in units of u/L, as a plain number.

# input Hello, please tell me recorded LIPASE for this one: O=NN(CCCl)C(=O)NCCCl
# output 10.5

# input Name the recorded LIPASE of the item COCCOC(=O)C1=C(C)NC(C)=C(C(=O)OC(C)C)C1c1cccc([N+](=O)[O-])c1 (stereo not given) in your answer.
# output 10.5

# input Fill in LIPASE for record C[C@H]1O[C@@H](O[C@H]2[C@@H](O)C[C@H](O[C@H]3[C@@H](O)C[C@H](O[C@H]4CC[C@@]5(C)[C@H](CC[C@@H]6[C@@H]5CC[C@]5(C)[C@@H](C7=CC(=O)OC7)CC[C@]65O)C4)O[C@@H]3C)O[C@@H]2C)C[C@H](O)[C@@H]1O
# output 10

# input For the molecule CC/C(=C(/CC)c1ccc(O)cc1)c1ccc(O)cc1 , report LIPASE.
# output 9.5

# input Could you please provide reported LIPASE for CC(C)Cc1ccc(C(C)C(=O)O)cc1 (stereo not given) ? Thanks!
# output 11.33

# input Hello, please tell me recorded LIPASE for this one: CCCCCCCCc1ccc(O)cc1
# output 10.83

# input Supply measured LIPASE of Cc1cccc(Nc2ccncc2S(=O)(=O)NC(=O)NC(C)C)c1 [TORSEMIDE] in your reply.
# output 10.5

# input Give the reported LIPASE for this molecule. C[C@]12CC[C@@H]3c4ccc(O)cc4CC[C@H]3[C@@H]1CC[C@@H]2O
# output 10.5

# input Note LIPASE for the molecule shown: CC(=O)Nc1ccc(O)cc1
# output 10.5

# input Fill in reported LIPASE for this entry: CC(=O)Nc1cccc(O)c1
# output 10.17
